target: T1, human Galectin-3 (Gal3) (human, UniProt P17931 2-250, limits assumed); assay: SPR Biacore T200, antibody captured, Gal3 analyte, 1:1 fit
T1 construct: also called hGal3; hGAL3
T1 sequence (P17931 2-250 limits assumed): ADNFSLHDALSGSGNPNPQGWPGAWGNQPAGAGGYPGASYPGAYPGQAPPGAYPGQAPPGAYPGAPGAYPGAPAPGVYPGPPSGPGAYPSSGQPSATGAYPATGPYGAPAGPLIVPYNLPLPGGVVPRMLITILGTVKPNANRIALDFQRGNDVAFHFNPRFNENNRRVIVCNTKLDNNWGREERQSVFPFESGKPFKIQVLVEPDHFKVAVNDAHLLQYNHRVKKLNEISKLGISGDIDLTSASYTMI
METRIC NAME: pKd
Give bare numbers, as −log10 of the molar value.

INPUT: State the recorded pKd for this entry: 15G7.2A7 (antibody, V domains shown) VH: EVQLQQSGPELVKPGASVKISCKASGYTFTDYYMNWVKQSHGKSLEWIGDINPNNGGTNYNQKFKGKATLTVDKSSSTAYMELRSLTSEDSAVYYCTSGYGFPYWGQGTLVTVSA VL: DIQMNQSPSSLSASLGDTISITCRASQNINIWLSWYQQKPGNIPQLLIYKASNLHTGVPSRFSGSGSGTDFTLTISSLQPEDIATYYCLQGQSYPLTFGAGTKLVMKR
OUTPUT: 7.56
